# Experiment: AUC in BALB/c mouse plasma at 2.5 mg/kg, iv administered as single dose by LC/MS analysis
# Format: ADME, organism-based
# Parameters: dose 2.5 mg/kg, route intravenous
Property name: AUC (nM·h)

1. CN1C(=O)N[C@H]2[C@@H]3NC(=O)c4ccc(Br)n4[C@@H]3C[C@]21O (stereo in doubt; 1a) [AGELASTATIN A]: 1740

---

# EC50 per record follows
# Experiment: Antitumor activity against human JVM2 cells assessed as cell viability after 48 hrs by FACS analysis
# Assay type: functional, cell-based
# Recorded conditions: JVM-2, 48 h
Property name: EC50 (µM)

1) CN1C(=O)N[C@H]2[C@@H]3NC(=O)c4ccc(C(F)(F)F)n4[C@@H]3C[C@]21O: 0.66
2) Nc1nc(F)nc2c1ncn2[C@@H]1O[C@H](CO)[C@@H](O)[C@@H]1O: 10.4
3) CN1C(=O)N[C@H]2[C@@H]3NC(=O)c4cc(Br)c(Br)n4[C@@H]3C[C@]21O: 3.53
4) CN1C(=O)N[C@H]2[C@@H]3NC(=O)c4ccc(C(F)F)n4[C@@H]3C[C@]21O: 4.66
5) CN1C(=O)N[C@H]2[C@@H]3NC(=O)c4cc(I)cn4[C@@H]3C[C@]21O: 222
6) CN1C(=O)N[C@H]2[C@@H]3NC(=O)c4ccc(I)n4[C@@H]3C[C@]21O: 2.62
7) CN1C(=O)N[C@H]2[C@@H]3NC(=O)c4ccc(Cl)n4[C@@H]3C[C@]21O: 0.2
8) CN1C(=O)N[C@H]2[C@@H]3NC(=O)c4cc(C(F)(F)F)c(C(F)(F)F)n4[C@@H]3C[C@]21O: 41

---

# Experiment: Cmax in BALB/c mouse plasma at 2.5 mg/kg, iv administered as single dose by LC/MS analysis
# Type: ADME, organism-based
# Set-up: dose 2.5 mg/kg, route intravenous
Property name: Cmax (µM)

1. CN1C(=O)N[C@H]2[C@@H]3NC(=O)c4ccc(Br)n4[C@@H]3C[C@]21O (stereo in doubt; 1a): 4.5
